# PROCEDURE_SUMMARY: in vivo
# CONDITION_PARAMETERS: sheep, 0.15 mg/kg, morphine-6-glucuronide concentration (plasma)
# Method: The chitosan concentration was 0.5%. The solution was administered into the sheep nostril using a simple spray pump device followed by serial blood sampling. […] Control experiments were conducted using i.v. dosage of the glucuronide. Blood samples (10 ml) were taken at the following times. […] Biomed. […] The limit of quantification of the method is 1 ng/ml for a 0.5 ml plasma sample and the assay is linear over the range of 1 to 1200 ng/ml drug concentration.
TEST_READOUT: concentration at 0.5 h (ng/mL)
Give bare numbers, in ng/mL.

The reported concentration at 0.5 h of the compound CN1CC[C@]23c4c5ccc(O)c4O[C@H]2[C@@H](O[C@@H]2O[C@H](C(=O)O)[C@@H](O)[C@H](O)[C@H]2O)C=C[C@H]3[C@H]1C5 [morphine-6-glucuronide] was 107

====

# PROCEDURE_SUMMARY: Pharmacokinetic parameters after intravenous administration to sheep
# CONDITION_PARAMETERS: sheep, plasma, iv, 0.015 mg/kg, Clearance, i.v. 0.015 mg/kg; individual sheep NF, OF, PF
TEST_READOUT: clearance (mL/min/kg)
Answers are plain numbers, in mL/min/kg.

Documented clearance of CN1CC[C@]23c4c5ccc(O)c4O[C@H]2[C@@H](O[C@@H]2O[C@H](C(=O)O)[C@@H](O)[C@H](O)[C@H]2O)C=C[C@H]3[C@H]1C5 [morphine-6-glucuronide] : 6.9

====

# PROCEDURE_SUMMARY: Pharmacokinetic parameters after nasal administration to sheep
# CONDITION_PARAMETERS: sheep, plasma, 0.15 mg/kg, T1/2, nasal 0.15 mg/kg with 0.5% chitosan; mean of 3 sheep
TEST_READOUT: half-life (min)
Numbers only, in min.

Noted for CN1CC[C@]23c4c5ccc(O)c4O[C@H]2[C@@H](O[C@@H]2O[C@H](C(=O)O)[C@@H](O)[C@H](O)[C@H]2O)C=C[C@H]3[C@H]1C5 [morphine-6-glucuronide] : its half-life reads 45

====

# PROCEDURE_SUMMARY: Pharmacokinetic parameters after nasal administration to sheep
# CONDITION_PARAMETERS: sheep, plasma, 0.15 mg/kg, Apparent Volume of Distribution, nasal 0.15 mg/kg with 0.5% chitosan; corrected for bioavailable dose; mean of 3 sheep
# Protocol: The chitosan concentration was 0.5%. The solution was administered into the sheep nostril using a simple spray pump device followed by serial blood sampling. […] Control experiments were conducted using i.v. dosage of the glucuronide. […] The area under the curve (AUC) was calculated over 0-300 minutes using the linear trapezoidal method. […] Clearance was calculated by dividing the dose by the AUC, and the volume of distribution was calculated by dividing the clearance by the elimination rate constant. […]
TEST_READOUT: Vd (L/kg)
Give bare numbers, in L/kg.

Query CN1CC[C@]23c4c5ccc(O)c4O[C@H]2[C@@H](O[C@@H]2O[C@H](C(=O)O)[C@@H](O)[C@H](O)[C@H]2O)C=C[C@H]3[C@H]1C5 [morphine-6-glucuronide] yields Vd of 0.33

====

# PROCEDURE_SUMMARY: Pharmacokinetic parameters after nasal administration to sheep
# CONDITION_PARAMETERS: sheep, plasma, 0.15 mg/kg, Area Under Curve, nasal 0.15 mg/kg with 0.5% chitosan; 0-300 min; mean of 3 sheep
TEST_READOUT: AUC at 5 h (ng·h/mL)
Answers are plain numbers, in ng·h/mL.

Record CN1CC[C@]23c4c5ccc(O)c4O[C@H]2[C@@H](O[C@@H]2O[C@H](C(=O)O)[C@@H](O)[C@H](O)[C@H]2O)C=C[C@H]3[C@H]1C5 [morphine-6-glucuronide] , field AUC at 5 h: 153
